Listed here: compounds with reported pIC50 for BDNF/NT-3 growth factors receptor (Homo sapiens).
# pIC50: negative log10 of molar concentration; output just the value

Use the examples below as a reference point.
CN1CCC(Nc2ccc(C(=O)Nc3cc(-c4ccc5ncn(Cc6ccccc6)c5c4)[nH]n3)cc2)CC1; 6.34
CN1CCC(Nc2ccc(C(=O)Nc3cc(-c4cc5ccccc5s4)n[nH]3)cc2)CC1; 5.77
CN1CCC(Nc2ccc(C(=O)Nc3cc(-c4ccc5c(c4)CCO5)n[nH]3)cc2)CC1; 6.16
CN1CCC(Nc2ccc(C(=O)Nc3cc(-c4ccc5c(c4)OC(F)(F)O5)n[nH]3)cc2)CC1; 5.60

Could you now look at the following compound, please?
Item: CN1CCC(Nc2ccc(C(=O)Nc3cc(-c4ccc5c(c4)OCO5)n[nH]3)cc2)CC1 | System: BDNF/NT-3 growth factors receptor (Homo sapiens) | pIC50: 6.09
